- System: HOP-62 NSCLC
- test_summary: NCI-60 one-dose screen, 48 h
- condition_parameters: 10 µM unless noted
The panel holds about 83,000 compounds, 20% with a hit somewhere; the sample as a whole holds those more often. The source made the active and inactive calls. How the source made its calls: active means growth percent below 10; inactive means the rest.
Please reply with one of these outcomes: active, inactive

Test call, this compound: COc1cnc2c(c1)C(=O)c1c-2n(CCCn2ccnc2)c(=O)c2cc(F)ccc12
active

Test call, this compound: COc1cnc2c(c1)C(=O)c1c-2n(CCCNC(C)C)c(=O)c2cc(F)ccc12
active

Test call, this compound: COC(=O)C1=CCC(n2cnc3c(N)ncnc32)O1 (stereo not given)
inactive

Test call, this compound: N#Cc1c(-c2ccccc2)cc(-c2ccccc2)n(CCCC(=O)O)c1=O
inactive

Test call, this compound: Cc1nn2c(/C=C3/C(=O)Nc4cc(Cl)ccc43)c(-c3ccccc3)nc2s1
inactive

---
Test call, this compound: CCOC(=O)c1cnc2c(C)cc(C)cc2c1NCCCN(C)C
inactive

Test call, this compound: Nc1nc(Nc2ccccc2SSc2ccccc2Nc2nc(N)nc(C(Cl)(Cl)Cl)n2)nc(C(Cl)(Cl)Cl)n1
active

Test call, this compound: O=C1/C(=C/c2ccc(F)cc2)Cc2ccccc21
inactive

Test call, this compound: CN(C)CCC(=O)Nc1ccc(-n2cc(-c3cccc(NC(=S)Nc4cccc(-c5cn(-c6ccc(NC(=O)CCN(C)C)cc6)nn5)c4)c3)nn2)cc1
inactive

Test call, this compound: O=C(O)CCNS(=O)(=O)c1ccc(-c2ccccc2)cc1
inactive

###

- System: UACC-257 melanoma
- test_summary: NCI-60 one-dose screen, 48 h
- condition_parameters: 10 µM unless noted
This is part of a sample that, as a whole, favours compounds with a hit. Of some 83,000 tested, about 20% had one in any assay. Calls of active or inactive are those of the source. The calls were made as follows: active = growth percent below 10; inactive = the rest.
Please reply with one of these outcomes: yes (1) = active, no (0) = inactive

Below, 6 compounds whose answers are already recorded.
Test call, this compound: CC(NC(=O)Oc1cccc2ccccc12)c1ccccc1 (stereo not drawn)
no (0)

Test call, this compound: CN(C)c1ncnc2c1ncn2C1CCCCO1 (stereo not drawn)
no (0)

Test call, this compound: CC(=O)N1N=C(c2ccc(C(F)(F)F)cc2)CC1c1ccc2c(c1)OCO2 (stereo not drawn)
no (0)

Test call, this compound: CNCCCn1c2c(c3ccc(F)cc3c1=O)C(=O)c1cc(OC)cnc1-2
yes (1)

Test call, this compound: CCCCN1c2nc3ccccc3cc2Sc2cc3ccccc3nc21
no (0)

Test call, this compound: Cc1cc(C)cc(S(=O)(=O)n2ccc(-c3ccc4c(c3)CCC(C)(C)O4)n2)c1
no (0)

---
Test call, this compound: CCCCCCCCCCN1CCC(N2CCCCC2)CC1
yes (1)

Test call, this compound: CC(=O)Nc1ccc(C(=O)COc2cccc(/C=C3\CCc4ccccc4C3=O)c2)cc1
no (0)

Test call, this compound: COc1ccc2c3c(ccc2c1)C(=O)/C(=C\O)CC3
no (0)

Test call, this compound: CCCCCCC(CC#N)(CCC)CCCC (stereo not drawn)
no (0)

Test call, this compound: O=c1[nH]c(N2CCC(Cc3ccccc3)CC2)nc2sc3c(c12)CCCC3
no (0)

Test call, this compound: CC(C)N(Cc1ccccc1)c1c(Cl)ssc1=O
no (0)

Test call, this compound: O=C(Nc1ccccc1OC(=O)c1ccccc1)c1ccccc1
no (0)

###

- Test system: UO-31 renal
- test_summary: NCI-60 one-dose screen, 48 h
- condition_parameters: 10 µM unless noted
- Experimental: Growth inhibition of the UO-31 human tumor cell line is measured as a screen for anti-cancer activity. Cells are grown in 96 well plates and exposed to the test compound for 48 hours. Compounds are tested at a single concentration, which is 10^-5 M for most compounds. The reported endpoint is percent growth (GI% or GIPRCNT), where numbers from 0 - 100% represent growth inhibition, and numbers from -100% - 0 represent cell death. For example, a value of 40 represents 60% growth inhibition. […]
Compounds without any hit were thinned out: in the full panel of roughly 83,000, 20% have a hit. Calls of active or inactive are those of the source. Rule for the calls: active = growth percent below 10; inactive = the rest.
Please reply with one of these outcomes: active, inactive

Below, 2 compounds whose answers are already recorded.
Test call, this compound: O=c1[nH]c(SCc2ccccc2)nc2nc(Nc3ccc(NC(=S)Nc4ccccc4)cc3)nc(-c3ccc(O)cc3O)c12
inactive

Test call, this compound: CC(=O)Nc1c(Cl)cc2c(c1Cl)Cc1ccccc1-2
inactive

---
Test call, this compound: CCOC(=O)N1CCC(N=C2CSc3nnc(-c4cc(C(F)(F)F)cc(C(F)(F)F)c4)n3N2)CC1
inactive

Test call, this compound: CC1C(=O)NC2=Nc3ccccc3C(=O)NN21 (stereo not given)
inactive

Test call, this compound: O=C1C2C(C(=O)N1CC[Se][Se]CCN1C(=O)C3C(C1=O)[C@H]1C=C[C@@H]3C1)[C@H]1C=C[C@@H]2C1 (stereo not given in full)
active

###

- Test system: CCRF-CEM leukemia
- test_summary: NCI-60 one-dose screen, 48 h (100 = growth as untreated, 0 = no growth, -100 = all killed)
- condition_parameters: 10 µM unless noted
The panel holds about 83,000 compounds, 20% with a hit somewhere; the sample as a whole holds those more often.
# reported growth; entries follow
Give the number; % is assumed, so skip it.

Bench note: what growth did COc1ccc([N+](=O)[O-])c(S(=O)(=O)c2ccc(Cl)cc2)n1 show?
-11.5

Bench note: what growth did COc1ccc2c(c1)c(CC(=O)[Se]C)c(C)n2C(=O)c1ccc(Cl)cc1 show?
13

Bench note: what growth did NS(=O)(=O)N(c1cc(C(F)(F)F)cc(C(F)(F)F)c1)C1CCN(Cc2ccc(C(F)(F)F)cc2)CC1 show?
23.6

Bench note: what growth did COC(=O)C1CCN(S(=O)(=O)c2ccc(-c3ccccc3)cc2)CC1 show?
138

Bench note: what growth did COc1ccc(C2=NN(C(N)=S)C(c3ccc4c(c3)OCO4)C2)cc1 (stereo not given) show?
5.49

###

- System: SK-OV-3 ovarian
- test_summary: NCI-60 one-dose screen, 48 h (100 = growth as untreated, 0 = no growth, -100 = all killed)
- condition_parameters: 10 µM unless noted
Compounds without any hit were thinned out: in the full panel of roughly 83,000, 20% have a hit.
Consider the cut-off 80%. If the recorded growth is strictly smaller, the label is 1.0; if not, the label is 0.0.

Below, 5 compounds whose answers are already recorded.
growth under 80%? Item: CC(=O)Nc1cc(C(c2ccccc2)c2ccccc2)cc(C(c2ccccc2)c2ccccc2)c1C
1.0

growth under 80%? Item: CCN(CC)CCOCC[C@H]1CC[C@H]2[C@@H]3[C@H](C)Cc4cc(OS(N)(=O)=O)ccc4[C@H]3CC[C@]12C
1.0

growth under 80%? Item: O=C(CC(C(=O)c1ccccc1)N1CCN(Cc2ccccc2)CC1)c1ccccc1 (stereo not given)
0.0

growth under 80%? Item: CN1CCC[C@@H]1CCO[C@](C)(c1ccccc1)c1ccc(Cl)cc1
1.0

growth under 80%? Item: COc1ccc(-c2ccc(O)c(C(=O)/C=C/c3cc(OC)c(OC)c(OC)c3)c2)cc1
1.0

---
growth under 80%? Item: CNCCCn1c2c(c3ccc(F)cc3c1=O)C(=O)c1cc(OC)cnc1-2
1.0

###

- System: U251 CNS
- test_summary: NCI-60 one-dose screen, 48 h
- condition_parameters: 10 µM unless noted
- Description: Growth inhibition of the U251 human tumor cell line is measured as a screen for anti-cancer activity. Cells are grown in 96 well plates and exposed to the test compound for 48 hours. Compounds are tested at a single concentration, which is 10^-5 M for most compounds. The reported endpoint is percent growth (GI% or GIPRCNT), where numbers from 0 - 100% represent growth inhibition, and numbers from -100% - 0 represent cell death. For example, a value of 40 represents 60% growth inhibition. […]
Compounds without any hit were thinned out: in the full panel of roughly 83,000, 20% have a hit. Active and inactive are the calls of the source. How the source made its calls: active means growth percent below 10; inactive means the rest.
Please reply with one of these outcomes: active, inactive

Below, 6 molecules whose answers are already recorded.
Test call, this molecule: O=c1oc2c(cc1-c1ccc([N+](=O)[O-])cc1)C(O)Oc1ccccc1-2 (stereo not given)
inactive

Test call, this molecule: Nc1c(C(=O)Nc2cccc(Cl)c2)sc2nc3c(cc12)C(O)CCC3 (stereo not given)
inactive

Test call, this molecule: CSc1nc(N)c2c(n1)N(C)C=NS2(=O)=O
inactive

Test call, this molecule: CCOc1cc(/C=C/C(=O)C(C(=O)/C=C/c2ccc(OC(=O)CNc3nnc(C)s3)c(OCC)c2)C(=O)CNc2nnc(C)s2)ccc1OC(=O)CNc1nnc(C)s1
active

Test call, this molecule: O=C1Nc2ccc(C(=O)O)c(O)c2C1=O
inactive

Test call, this molecule: CCCCCc1c(C)[nH]c(/C=C2\N=C(c3ccc[nH]3)C=C2Oc2ccc(Cl)cc2)c1C
active

---
Test call, this molecule: COc1cccc(N2CCN(CC(=O)N3CCN(c4nnc(-c5ccc(Cl)cc5)c(-c5ccc(Cl)cc5)n4)CC3)CC2)c1
inactive

Test call, this molecule: c1ccc(COc2ccc(Nc3ncnc4c3cnn4-c3ccccc3)cc2)cc1
inactive

Test call, this molecule: CC(C)=CCCC(C)c1ccc(C)c2c1OCN(CC1CCNCC1)C2 (stereo not given)
active

Test call, this molecule: CCCCCN(CCCCC)CCCNc1c2c(nc3ccc(Cl)cc13)CCCC2
inactive
